tested.target: IDH1 R132H enzyme (Homo sapiens (Human), UniProt O75874, R132H)
Sequence (O75874 whole entry R132H): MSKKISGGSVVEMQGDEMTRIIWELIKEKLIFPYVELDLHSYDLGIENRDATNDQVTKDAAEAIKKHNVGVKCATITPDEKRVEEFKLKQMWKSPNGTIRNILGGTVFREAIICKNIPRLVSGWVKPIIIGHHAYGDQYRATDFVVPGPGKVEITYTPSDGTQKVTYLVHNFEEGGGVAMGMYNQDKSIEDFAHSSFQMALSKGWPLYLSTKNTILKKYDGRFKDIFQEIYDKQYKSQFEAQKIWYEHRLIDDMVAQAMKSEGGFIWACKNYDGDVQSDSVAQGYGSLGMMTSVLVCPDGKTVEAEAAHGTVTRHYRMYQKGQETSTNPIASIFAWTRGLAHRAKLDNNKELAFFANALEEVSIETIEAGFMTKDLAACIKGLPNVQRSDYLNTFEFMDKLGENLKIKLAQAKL
method.description: Mutant IDH1 R132H biochemical assay; note: 1.5 nM enzyme
assay.setup: NADPH consumption, luminescent readout, 250 μM α-KG, 1 μM NADPH, 32° C., 30 minutes, test range 0.002-10 μM
Reported IC50 values follow for various compounds
// return numeric value only (unit: nM, not printed)

compound="COC(=O)CN(C)C(=O)c1ccc2nc(Nc3ccc(OC(F)(F)F)cc3)n([C@H]3C[C@@H](C)CC(C)(C)C3)c2c1 (racemic)" measured_parameter=IC50 value_observed=250
compound="CNC(=O)c1ccc2nc(Nc3ccc(OC(F)(F)F)cc3)n([C@H]3C[C@@H](C)CC(C)(C)C3)c2c1 (single isomer, unassigned; enantiomer a) [Example 2-8-1]" measured_parameter=IC50 value_observed=920

Continue with the next compound.
Request: Please state recorded IC50 (tested on IDH1 R132H enzyme (Homo sapiens (Human), UniProt O75874, R132H)) of C[C@@H]1C[C@H](n2c(Nc3ccc(OC(F)(F)F)cc3)nc3ccc(C(=O)N(C)C)cc32)CC(C)(C)C1 (single isomer, unassigned; enantiomer a) [Example 2-20-1]
Response: 80
